Source of measurements: the NTF2 design screens of Basanta et al. (2020)

Assay: protease stability score; higher = more stable; yeast display proteolysis, trypsin and chymotrypsin;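 also: relative to predicted unfolded state with 0 unfolded-like and 1 meaning tenfold more protease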
# maps each entry to its protease stability score
Field format: numeric only.

Worked examples follow.
* DEVEELIEENRRFFEESWMTGDEDSLRKNADPNVRLKVGEFHLIGREAFETWARQAVHMDSIEIHHMHFFDGVVHSITHFDGKFNGRKERHSIYLVELKVNGRWLNHEIRLK | 0.511
* DEDEELSERATREFIENWKTGNFDDLMKLLDPNVKLDVGDKRHHGRERMVRSMVEILKHLGANVIDIHDTDVYDGRIDIHLRLEAENHHSILTIHIEKINGRWLIRSMEIK | 1.26

query: Query: protease stability score; subject: `DETEEDVREAIRKMLHSTRTGDEEDNKKLMDPNVQIDIDGVKYHGWETWVEHMRRVDHLRMKIHSIEVQGNKLIVDGELDQRFNGVQLRFRSELILVKIDGRWLVHSIHFK`
result: 1.17

query: Query: protease stability score; subject: `DTIERFVRHSFNLFVKQLETGDEHTLEKMADPHVRLEYGDKEYHGREEFKRQMHEIRFKRLELKRIEIQGEWAIMHGEDDGHFNGVDMKLESTEIAVKVNGRWYLKSFILK`
result: 1.41

query: Query: protease stability score; subject: `DEHEEKLIKHMESLLHWEETGDEESMLKNADPNARHDVNGVEFHGMHRFVHHVIKRGWRFRMEVEHVDAFDGRYRVEGTLILNFDGVEHRHHVILRFIVIDGRLHERKVEVR`
result: 1.46
